These data points were gathered from the supplement of paper PMC11061612.

Test system: COR-L105 (Lung Adenocarcinoma)
Test: Bliss excess, mean over the matrix (fraction); higher = more synergy;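 note: after 72 h of two-drug dosing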
Bliss excess values, listed per item
The answer should be a number; do not append a unit.

Problem: # get_value(readout='Bliss excess', item= Cc1cc2ncnn2cc1Nc1ncc2c(n1)n(C1CCOCC1)c(=O)n2C [AZD7648] + CCN(CCO)CCCOc1ccc2c(Nc3cc(CC(=O)Nc4cccc(F)c4)[nH]n3)ncnc2c1 [AZD2811] (first compound max 10 µM, 7x7, partner max 1 µM) )
Result: -0.0508

Problem: And for C[C@@H]1COCCN1c1cc(C2([S@](C)(=N)=O)CC2)nc(-c2ccnc3[nH]ccc23)n1 [AZD6738] + C1CC(C1)(C(=O)[O-])C(=O)[O-].N.N.[Pt+2] [Carboplatin] (first compound max 10 µM, 7x7, partner max 10 µM) ?
Result: -0.0272

Problem: And for O=C(c1cc(Cc2n[nH]c(=O)c3ccccc23)ccc1F)N1CCN(C(=O)C2CC2)CC1 [Olaparib] + COc1nnc2ccc(N3CCC(c4ccc(OCCN5CCN(C)C(=O)[C@H]5C)cc4)CC3)nn12 [AZD5153] (first compound max 10 µM, 7x7, partner max 1 µM) ?
Result: -0.0689

Others:
Problem: # get_value(readout='Bliss excess', item= Cc1c2c(nn1C)CSCc1cc(n(C)n1)CSc1cc(c3ccccc3c1)OCCCc1c(C(=O)O)n(C)c3c-2c(Cl)ccc13 [AZD5991] + Cn1cnc2c(F)c(Nc3ccc(Br)cc3Cl)c(C(=O)NOCCO)cc21 [Selumetinib] (first compound max 1 µM, 7x7, partner max 3 µM) )
Result: -0.0263

Problem: And for CCN(CCO)CCCOc1ccc2c(Nc3cc(CC(=O)Nc4cccc(F)c4)[nH]n3)ncnc2c1 [AZD2811] + C[C@@H]1COCCN1C2=NC(=NC(=C2)C3(CC3)[S@](=N)(=O)C)C4=C5C=CNC5=NC=C4 [AZD6738] (first compound max 1 µM, 7x7, partner max 10 µM) ?
Result: -0.0679

Problem: And for O=C(c1cc(Cc2n[nH]c(=O)c3ccccc23)ccc1F)N1CCN(C(=O)C2CC2)CC1 [Olaparib] + CC1(C)CCC(CN2CCN(c3ccc(C(=O)NS(=O)(=O)c4ccc(NCC5CCOCC5)c([N+](=O)[O-])c4)c(Oc4cnc5[nH]ccc5c4)c3)CC2)=C(c2ccc(Cl)cc2)C1 [Venetoclax] (first compound max 10 µM, 7x7, partner max 1 µM) ?
Result: -0.0328

Problem: And for COc1cccc(OCCCN)c1-c1cc(Nc2cnc(C#N)cn2)n[nH]1 [Prexasertib] + O=C(c1cc(Cc2n[nH]c(=O)c3ccccc23)ccc1F)N1CCN(C(=O)C2CC2)CC1 [Olaparib] (first compound max 1 µM, 7x7, partner max 10 µM) ?
Result: -0.0135

Problem: And for CN(C)CCCOc1ccc(-c2ccc3ncc4c(c3c2)n(C2CCOCC2)c(=O)n4C)cn1 [AZD0156] + CCN(CCO)CCCOc1ccc2c(Nc3cc(CC(=O)Nc4cccc(F)c4)[nH]n3)ncnc2c1 [AZD2811] (first compound max 1 µM, 7x7, partner max 1 µM) ?
Result: -0.0457

----------
Bliss excess values, listed per item
System: SBC-3 (Small Cell Lung Carcinoma)
Test: Bliss excess, mean over the matrix (fraction); higher = more synergy

Field: example entries. Status: answers known.
Problem: # get_value(readout='Bliss excess', item= CC1(C)CCC(CN2CCN(c3ccc(C(=O)NS(=O)(=O)c4ccc(NCC5CCOCC5)c([N+](=O)[O-])c4)c(Oc4cnc5[nH]ccc5c4)c3)CC2)=C(c2ccc(Cl)cc2)C1 [Venetoclax] + C1CN(CCC1(C(=O)N[C@@H](CCO)C2=CC=C(C=C2)Cl)N)C3=NC=NC4=C3C=CN4 [Capivasertib] (first compound max 1 µM, 7x7, partner max 3 µM) )
Result: -0.0457

Problem: And for COc1cccc(OCCCN)c1-c1cc(Nc2cnc(C#N)cn2)n[nH]1 [Prexasertib] + Cc1cc2ncnn2cc1Nc1ncc2c(n1)n(C1CCOCC1)c(=O)n2C [AZD7648] (first compound max 1 µM, 7x7, partner max 10 µM) ?
Result: -0.0512

Others:
Problem: # get_value(readout='Bliss excess', item= CC1(C)CCC(CN2CCN(c3ccc(C(=O)NS(=O)(=O)c4ccc(NCC5CCOCC5)c([N+](=O)[O-])c4)c(Oc4cnc5[nH]ccc5c4)c3)CC2)=C(c2ccc(Cl)cc2)C1 [Venetoclax] + CN(C)CCCOc1ccc(-c2ccc3ncc4c(c3c2)n(C2CCOCC2)c(=O)n4C)cn1 [AZD0156] (first compound max 1 µM, 7x7, partner max 1 µM) )
Result: -0.0369

Problem: And for CC1(C)CCC(CN2CCN(c3ccc(C(=O)NS(=O)(=O)c4ccc(NCC5CCOCC5)c([N+](=O)[O-])c4)c(Oc4cnc5[nH]ccc5c4)c3)CC2)=C(c2ccc(Cl)cc2)C1 [Venetoclax] + C=CCn1c(=O)c2cnc(Nc3ccc(N4CCN(C)CC4)cc3)nc2n1-c1cccc(C(C)(C)O)n1 [AZD1775] (first compound max 1 µM, partner max 1 µM) ?
Result: 0.043

----------
Bliss excess values, listed per item
Tested on: NCI-H1648 (Lung Adenocarcinoma)
Experiment: Bliss excess, mean over the matrix (fraction); higher = more synergy
The answer should be a number; do not append a unit.

Problem: # get_value(readout='Bliss excess', item= CN(CCO)CC[C@H](CSc1ccccc1)Nc1ccc(S(=O)(=O)NC(=O)c2ccc(N3CCC([C@@H](O)c4ccccc4-c4ccc(Cl)cc4)CC3)cc2)cc1S(=O)(=O)C(F)(F)F [AZD4320] + CN(C)CCCOc1ccc(-c2ccc3ncc4c(c3c2)n(C2CCOCC2)c(=O)n4C)cn1 [AZD0156] (first compound max 1 µM, 7x7, partner max 1 µM) )
Result: -0.0326

Problem: And for Cc1c2c(nn1C)CSCc1cc(n(C)n1)CSc1cc(c3ccccc3c1)OCCCc1c(C(=O)O)n(C)c3c-2c(Cl)ccc13 [AZD5991] + C[C@@H](Nc1cc(F)cc(F)c1)c1cc(C(=O)N(C)C)cc2c(=O)cc(N3CCOCC3)oc12 [AZD8186] (first compound max 1 µM, 7x7, partner max 3 µM) ?
Result: -0.0508

Problem: And for C=CCn1c(=O)c2cnc(Nc3ccc(N4CCN(C)CC4)cc3)nc2n1-c1cccc(C(C)(C)O)n1 [AZD1775] + C[C@@H]1COCCN1C2=NC(=NC(=C2)C3(CC3)[S@](=N)(=O)C)C4=C5C=CNC5=NC=C4 [AZD6738] (first compound max 1 µM, partner max 10 µM) ?
Result: 0.0111

Problem: And for CC1(C)CCC(CN2CCN(c3ccc(C(=O)NS(=O)(=O)c4ccc(NCC5CCOCC5)c([N+](=O)[O-])c4)c(Oc4cnc5[nH]ccc5c4)c3)CC2)=C(c2ccc(Cl)cc2)C1 [Venetoclax] + CCN(CCO)CCCOc1ccc2c(Nc3cc(CC(=O)Nc4cccc(F)c4)[nH]n3)ncnc2c1 [AZD2811] (first compound max 1 µM, 7x7, partner max 1 µM) ?
Result: -0.0235

----------
Test system: NCI-H2009 (Lung Adenocarcinoma)
Assay: Bliss excess, mean over the matrix (fraction); higher = more synergy
MEASURED QUANTITY: Bliss excess
The answer should be a number; do not append a unit.

Problem: # get_value(readout='Bliss excess', item= COc1nnc2ccc(N3CCC(c4ccc(OCCN5CCN(C)C(=O)[C@H]5C)cc4)CC3)nn12 [AZD5153] + Cc1c2c(nn1C)CSCc1cc(n(C)n1)CSc1cc(c3ccccc3c1)OCCCc1c(C(=O)O)n(C)c3c-2c(Cl)ccc13 [AZD5991] (first compound max 1 µM, 7x7, partner max 1 µM) )
Result: -0.0271

Problem: And for N#Cc1cnc(Nc2cc(NC[C@H]3CNCCO3)c(C(F)(F)F)cn2)cn1 [SRA737] + Nc1ccn([C@@H]2O[C@H](CO)[C@@H](O)C2(F)F)c(=O)n1 [Gemcitabine] (first compound max 10 µM, 7x7, partner max 0.3 µM) ?
Result: 0.125

Problem: And for C=CCn1c(=O)c2cnc(Nc3ccc(N4CCN(C)CC4)cc3)nc2n1-c1cccc(C(C)(C)O)n1 [AZD1775] + CCc1c2c(nc3ccc(O)cc13)-c1cc3c(c(=O)n1C2)COC(=O)[C@]3(O)CC [SN-38] (first compound max 1 µM, partner max 0.3 µM) ?
Result: 0.0769

Problem: And for CC(=O)c1c(C)c2cnc(Nc3ccc(N4CCNCC4)cn3)nc2n(C2CCCC2)c1=O [Palbociclib] + Cn1cnc2c(F)c(Nc3ccc(Br)cc3Cl)c(C(=O)NOCCO)cc21 [Selumetinib] (first compound max 10 µM, 7x7, partner max 10 µM) ?
Result: -0.0264

Problem: And for NC1(C(=O)N[C@@H](CCO)c2ccc(Cl)cc2)CCN(c2ncnc3[nH]ccc23)CC1 [Capivasertib] + Cn1cnc2c(F)c(Nc3ccc(Br)cc3Cl)c(C(=O)NOCCO)cc21 [Selumetinib] (first compound max 10 µM, 7x7, partner max 10 µM) ?
Result: -0.0191

Problem: And for C=CCn1c(=O)c2cnc(Nc3ccc(N4CCN(C)CC4)cc3)nc2n1-c1cccc(C(C)(C)O)n1 [AZD1775] + C1CN(CCC1(C(=O)N[C@@H](CCO)C2=CC=C(C=C2)Cl)N)C3=NC=NC4=C3C=CN4 [Capivasertib] (first compound max 3 µM, partner max 3 µM) ?
Result: -0.0011
